assay: Relative inhibition of PDE2 of rat kidney and PDE5 of human platelets
assay_endpoint: IC50 ratio
The answer should be a number; do not append a unit.

{"structure_smiles_string": "CCCOc1ccccc1-c1nc(O)c2cc3[nH]cnc3cc2n1", "IC50 ratio": 360}

Q) Entry `CCCOc1ccc(S(=O)(=O)N2CCN(C)CC2)cc1-c1nc(O)c2cc3[nH]cnc3cc2n1` needs its IC50 ratio filled in; supply it.
A) 1300

* * *

target_or_test_system: cGMP-specific 3',5'-cyclic phosphodiesterase (Homo sapiens, UniProt O76074)
assay_endpoint: IC50 (nM)
Express the result in nM but write the number alone.

Q) Entry `CCCOc1ccc(S(=O)(=O)N2CCN(C)CC2)cc1-c1nc(O)c2cc3c(cc2n1)ncn3Cc1ccccc1` needs its IC50 filled in; supply it.
A) 5.3

* * *

assay: Relative inhibition of PDE4 of rat kidney and PDE5 of human platelets
assay_endpoint: IC50 ratio
The answer should be a number; do not append a unit.

{"structure_smiles_string": "CCCOc1ccccc1-c1nc(O)c2cc3[nH]cnc3cc2n1", "IC50 ratio": 100}
{"structure_smiles_string": "CCCOc1ccc(S(=O)(=O)N2CCN(C)CC2)cc1-c1nc(O)c2cc3c(cc2n1)ncn3Cc1ccccc1", "IC50 ratio": 600}
{"structure_smiles_string": "CCCOc1ccc(S(=O)(=O)N2CCN(C)CC2)cc1-c1nc(O)c2cc3[nH]cnc3cc2n1", "IC50 ratio": 1600}

Kindly review the next compound as well.
Q) Entry `CCCOc1ccc(C(N)=O)cc1-c1nc(O)c2cc3c(cc2n1)ncn3Cc1ccc(F)cc1` needs its IC50 ratio filled in; supply it.
A) 4200

* * *

assay: Relative ihibition of bovine retina PDE6 and PDE5 of human platelets
assay_endpoint: IC50 ratio
The answer should be a number; do not append a unit.

{"structure_smiles_string": "CCCOc1ccc(C(N)=O)cc1-c1nc(O)c2cc3c(cc2n1)ncn3Cc1ccc(F)cc1", "IC50 ratio": 60}
{"structure_smiles_string": "CCCOc1ccc(S(=O)(=O)N2CCN(C)CC2)cc1-c1nc(O)c2cc3[nH]cnc3cc2n1", "IC50 ratio": 2}
{"structure_smiles_string": "CCCOc1ccc(S(=O)(=O)N2CCN(C)CC2)cc1-c1nc(O)c2cc3c(cc2n1)ncn3Cc1ccccc1", "IC50 ratio": 20}

Q) Entry `CCCOc1ccccc1-c1nc(O)c2cc3[nH]cnc3cc2n1` needs its IC50 ratio filled in; supply it.
A) 1

* * *

assay: Relative inhibition of bovine heart PDE1 and PDE5 of human platelets
assay_endpoint: IC50 ratio

Q) Entry `CCCOc1ccc(S(=O)(=O)N2CCN(C)CC2)cc1-c1nc(O)c2cc3c(cc2n1)ncn3Cc1ccccc1` needs its IC50 ratio filled in; supply it.
A) 3400

Q) Entry `CCCOc1ccc(C(N)=O)cc1-c1nc(O)c2cc3c(cc2n1)ncn3Cc1ccc(F)cc1` needs its IC50 ratio filled in; supply it.
A) > 100000

Q) Entry `CCCOc1ccccc1-c1nc(O)c2cc3[nH]cnc3cc2n1` needs its IC50 ratio filled in; supply it.
A) 200

Q) Entry `CCCOc1ccc(S(=O)(=O)N2CCN(C)CC2)cc1-c1nc(O)c2cc3[nH]cnc3cc2n1` needs its IC50 ratio filled in; supply it.
A) 90
